Measured fold induction at 24 h, 50 µM of individual entries
Test system: CYP1A1 mRNA
Test: CYP1A1 mRNA expression in primary human hepatocytes
Format: cell-based
Settings: male, human, primary human hepatocytes (culture LH45)
Property measured: fold induction at 24 h, 50 µM

• OC[C@H]1O[C@@H](Oc2cc3c(O[C@@H]4O[C@H](CO)[C@@H](O)[C@H](O)[C@H]4O)cc(O)cc3[o+]c2-c2ccc(O)c(O)c2)[C@H](O)[C@@H](O)[C@@H]1O [CYA-3, cyanidin-3,5-di-O-glucoside chloride] = 0.48
• OC[C@H]1O[C@@H](Oc2cc3c(O)cc(O)cc3[o+]c2-c2ccc(O)c(O)c2)[C@H](O)[C@@H](O)[C@@H]1O [CYA-1, cyanidin-3-O-glucoside chloride] = 0.73
• COc1cc(-c2[o+]c3cc(O)cc(O)c3cc2O[C@@H]2O[C@H](CO)[C@@H](O)[C@H](O)[C@H]2O)cc(OC)c1O [MAL-1, malvidin-3-O-glucoside chloride] = 0.93

###

Measured CYP1A1 mRNA fold induction over the vehicle-treated cells, LH48 of individual entries
Tested on: CYP1A1 mRNA in primary human hepatocytes
Assay: CYP1A1 mRNA expression in primary human hepatocytes
Type: cell-based
Conditions: 50 µM
Property measured: CYP1A1 mRNA fold induction over the vehicle-treated cells, LH48 (fold)

• OC[C@H]1O[C@@H](Oc2cc3c(O)cc(O)cc3[o+]c2-c2ccc(O)c(O)c2)[C@H](O[C@@H]2OC[C@@H](O)[C@H](O)[C@H]2O)[C@@H](O)[C@@H]1O.[Cl-] [CYA-8, cyanidin-3-O-sambubioside chloride] = 0.02
• OC[C@H]1O[C@@H](O[C@H]2[C@@H](Oc3cc4c(O)cc(O)cc4[o+]c3-c3ccc(O)c(O)c3)O[C@H](CO)[C@@H](O)[C@@H]2O)[C@H](O)[C@@H](O)[C@@H]1O.[Cl-] [CYA-4, cyanidin-3-O-sophoroside chloride] = 0.05

###

System: CYP1A1 mRNA in primary human hepatocytes
Experiment: CYP1A1 mRNA expression in primary human hepatocytes
Assay type: cell-based
Conditions: hepatocyte culture LH45, 10 µM, 24 h
Property measured: CYP1A1 mRNA fold induction over the vehicle-treated cells, LH45

• C[C@@H]1O[C@@H](OC[C@H]2O[C@@H](Oc3cc4c(O)cc(O)cc4[o+]c3-c3cc(O)c(O)c(O)c3)[C@H](O)[C@@H](O)[C@@H]2O)[C@H](O)[C@H](O)[C@H]1O.[Cl-] [DEL-2, delphinidin-3-O-rutinoside chloride] = 1.53 ± 0.36 fold
• COc1cc(-c2[o+]c3cc(O)cc(O[C@@H]4O[C@H](CO)[C@@H](O)[C@H](O)[C@H]4O)c3cc2O[C@@H]2O[C@H](CO)[C@@H](O)[C@H](O)[C@H]2O)cc(OC)c1O.[Cl-] [MAL-2, malvidin-3,5-di-O-glucoside chloride] = 1.14 ± 0.28 fold
• COc1cc(-c2[o+]c3cc(O)cc(O)c3cc2O[C@@H]2O[C@H](CO)[C@@H](O)[C@H](O)[C@H]2O)ccc1O.[Cl-] [PEO-1, peonidin-3-O-glucoside chloride] = 0.21 ± 0.03 fold
• C[C@@H]1O[C@@H](Oc2cc3c(O)cc(O)cc3[o+]c2-c2cc(O)c(O)c(O)c2)[C@H](O)[C@H](O)[C@H]1O.[Cl-] [DEL-5, delphinidin-3-O-rhamnoside chloride] = 0.48 ± 0.01 fold
• COc1cc(-c2[o+]c3cc(O)cc(O)c3cc2O[C@@H]2O[C@H](CO)[C@H](O)[C@H](O)[C@H]2O)cc(OC)c1O.[Cl-] [MAL-3, malvidin-3-O-galactoside chloride] = 0.12 ± 0.00 fold
• OCC1OC(Oc2cc3c(OC4OC(CO)C(O)C(O)C4O)cc(O)cc3[o+]c2-c2cc(O)c(O)c(O)c2)C(O)C(O)C1O.[Cl-] (stereo not drawn) [DEL-3, delphinidin-3,5-di-O-glucoside chloride] = 0.82 ± 0.02 fold
• OC[C@H]1O[C@@H](Oc2cc3c(O)cc(O)cc3[o+]c2-c2cc(O)c(O)c(O)c2)[C@H](O[C@@H]2OC[C@@H](O)[C@H](O)[C@H]2O)[C@@H](O)[C@@H]1O.[Cl-] [DEL-4, delphinidin-3-O-sambubioside chloride] = 0.26 ± 0.21 fold
• OC[C@H]1O[C@@H](Oc2cc3c(O)cc(O)cc3[o+]c2-c2cc(O)c(O)c(O)c2)[C@H](O)[C@@H](O)[C@@H]1O.[Cl-] [DEL-1, delphinidin-3-O-glucoside chloride] = 1.80 ± 0.11 fold
• CC1OC(OCC2OC(Oc3cc4c(O)cc(O)cc4[o+]c3-c3ccc(O)cc3)C(O)C(O)C2O)C(O)C(O)C1O.[Cl-] (stereo not drawn) [PEL-2, pelargonidin-3-O-rutinoside chloride] = 0.87 ± 0.04 fold
